Every entry's value here was drawn from patent US8530493B2.

This listing pairs compounds with measured EC50.
# Tested on: RKO p27 uninduced (proliferating) colon adenocarcinoma cells
# Run Description: Alamar Blue cell viability assay, RKO p27 uninduced (proliferating)
# Assay type: cell-based
# Condition Set: Homo sapiens, RKOp27, Table B1, anti-proliferative/cytotoxic activity, 72 hours, read-out: −log EC50 RKO p27 uninduced (proliferating) (converted)
Value Kind: EC50

C[C@@]12Cc3c([nH]c4ccc(Cl)cc34)[C@@H](c3cccc(O)c3)N1C(=O)N(CCN)C2=O (racemic) [Example 30]
≤ 39.8 nM
CCOc1ccc2[nH]c3c(c2c1)C[C@@]1(C)C(=O)N(CCBr)C(=O)N1[C@@H]3c1cccc(O)c1 (racemic) [Example 22]
39.8 to 251 nM
CCOc1ccc2[nH]c3c(c2c1)C[C@@]1(C)C(=O)N(CCN(C)C)C(=O)N1[C@@H]3c1cccc(O)c1 (racemic) [Example 23]
≤ 39.8 nM
COc1ccc2[nH]c3c(c2c1)C[C@@]1(C)C(=O)N(CCn2ccnc2)C(=O)N1[C@@H]3c1cccc(O)c1 (racemic) [Example 13]
39.8 to 251 nM
COc1ccc2[nH]c3c(c2c1)C[C@@]1(C)C(=O)N(CCN2CCC(F)(F)C2)C(=O)N1[C@@H]3c1cccc(O)c1 (racemic) [Example 34]
39.8 to 251 nM
CCOc1ccc2[nH]c3c(c2c1)C[C@@]1(C)C(=O)N(CCN2CCC2)C(=O)N1[C@@H]3c1cccc(O)c1 (racemic) [Example 46]
≤ 39.8 nM
